- Test: H69AR cell proliferation blockers – human, duplicate replicates, primary screen (AID 580);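 also: 100% = mean luminescence of untreated wells and 0% = no signal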
- Study Conditions: H69AR lung tumor cells viability, ATP luminescence, 72 h; at 10 µM; stronger effect = lower value
Value Type: viability (%)
Give bare numbers, in %.

| Molecule | Value Type | Value Unit | Reported Measurement |
| --- | --- | --- | --- |
| CCOC(=O)c1cc2c(=O)n3ccccc3nc2n(CC2CCCO2)c1=NC(C)=O (stereo not given) | viability | % | 81.1 |
| O=C(Cn1c(=O)sc2ccccc21)NCCOc1ccccc1F | viability | % | 99.4 |
| O=C(CSc1nc2c(c(=O)n1-c1ccc(F)cc1)SCC2)NCC1CCCO1 (stereo not given) | viability | % | 105 |
| COc1ccc(/C=N/O)cc1COc1ccc(NC(C)=O)cc1 | viability | % | 103 |
| CCOC(=O)C1CCN(C(=O)CN(c2ccc(Cl)c(C(F)(F)F)c2)S(C)(=O)=O)CC1 | viability | % | 92.1 |

Give measured viability for every item shown.
1. COc1cc(NC(=O)CC(C)C)ccc1NC(=O)c1ccco1
2. CC1CCc2nn(CC(=O)N3CCN(C(=O)c4ccco4)CC3)cc2C1 (stereo not given)
3. CCCSCCCNC(=O)Cn1cc2c(n1)CCC(C)C2 (stereo not given)
4. CCOc1ccc(N(CC(=O)Nc2ccc(F)c(F)c2)S(=O)(=O)c2c(C)noc2C)cc1
5. COCCn1c(=N)c(C(=O)NCCc2ccccc2)cc2c(=O)n3cccc(C)c3nc21

(A)
1: 109; 2: 91.6; 3: 98.8; 4: 65.8; 5: 92.5

###

- Test: MRP1 drug-resistance reversers in H69AR cells – cell-based, doxorubicin co-treatment, pilot screen (AID 601)
- Study Conditions: H69AR cells, CellTiter-Glo, 72 h; compound alone cytotoxicity; at 10 µM
Field 'label' (enum: label 1 / label 0). Set to label 1 when viability is strictly under 90%; else label 0.

// below: answered compounds
| Compound | Assigned Label |
| --- | --- |
| O=C(O)CC(NC(=O)c1ccccc1NC(=O)c1ccccc1)C(=O)O (centres undefined) | label 0 |
| CC(OC(=O)C1CC=CCC1C(N)=O)C(Cl)=C(Cl)Cl (centres undefined) | label 0 |
| CCC(C)NC(=O)C1c2cc(OC)c(OC)cc2C(=O)N(C)C1c1ccc(OC)cc1 (centres undefined) | label 0 |
| Nc1[nH]nc2nc(N3CCCC3)nc(-c3ccccc3)c12 | label 0 |
| O=C(NCc1ccc2c(c1)OCO2)C1CCC(CNc2c(N3CCCCC3)c(=O)c2=O)CC1 (centres undefined) | label 0 |
| Cc1nnc(N(Cc2ccco2)C(=O)c2cccc(C#N)c2)s1 | label 0 |

(Q) Problem: For the compound CCOc1ccc(N(CC(=O)NC2CCCC(C)C2C)S(=O)(=O)c2c(C)noc2C)cc1 (centres undefined) , is viability under 90%?
(A) label 1

(Q) Problem: For the compound O=C(CCNS(=O)(=O)c1cccc2nsnc12)NCc1cccs1 , is viability under 90%?
(A) label 0

(Q) Problem: For the compound COc1ccc(CNC(=O)c2cnc3n(c2=O)CCS3)cc1 , is viability under 90%?
(A) label 0

###

Answer each item with its documented viability.
- Test: MRP1 drug-resistance reversers in H69AR cells – cell-based, doxorubicin co-treatment, pilot screen (AID 601)
- Study Conditions: H69AR cells + 2 uM doxorubicin, CellTiter-Glo, 72 h; measured here: viability with 2 uM doxorubicin; at 10 µM; stronger effect = lower value
Answers are plain numbers, in %.

| Compound | Value Type | Reported Measurement |
| --- | --- | --- |
| Cc1c(-n2c(CN3C(=O)c4ccccc4C3=O)nc3ccccc3c2=O)c(=O)n(-c2ccccc2)n1C | viability | 97 |
| CC12CCC(C(=O)N3CCN(C(=O)C45CCC(C)(C(=O)O4)C5(C)C)CC3)(OC1=O)C2(C)C | viability | 84.7 |
| CCCCOc1ccc(-c2ncc(Cl)cn2)cc1 | viability | 84.8 |
| CC(=O)NC(CCS(C)(=O)=O)C(=O)Nc1cccc2ccccc12 (stereo unspecified) | viability | 97.7 |
| CCC(=O)Oc1ccc2c(C)cc(=O)oc2c1C | viability | 102 |
| Cc1cc(C)nc(SCc2ccc3nonc3c2)n1 | viability | 73.5 |
| O=C(O)C1CC(=O)N(CCOc2ccccc2)C1 (stereo unspecified) | viability | 97 |
| COc1ccc(CCNC(=O)c2cnn3ccccc23)c(OC)c1OC | viability | 97 |

Give measured viability for every item shown.
1. CCOC(=O)C(CC)n1nc(C)n2c(cc3sccc32)c1=O (stereo unspecified)
2. COc1ccc(C(NC(=O)c2ccco2)c2ccc(OC)c(OC)c2)cc1 (stereo unspecified)

(A)
1. 84.2
2. 81.1

(Q) I am curious: what viability value has been reported for COC(=O)CSC1=C(C#N)C(c2ccc(F)cc2)CC(=O)N1 (stereo unspecified) ?
(A) 80.6

###

- Test: RAM pathway blockade in budding yeast – dse1pr::URA3 reporter, 5-FOA selection, pilot screen (AID 869);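 also: 0% = DMSO wells with no growth and 100% = 10 µM 1-NA-PP1 with full growth; RAM network block rescues cells from 5-FOA so hits raise OD615 growth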
- Study Conditions: S. cerevisiae dse1pr::URA3 5-FOA growth, OD615, 2 d; at 10 µM; stronger effect = higher value; strain carries analog-sensitive mutant Cbk1 kinase
Active and inactive are the calls of the source.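 The calls were made as follows: active = inhibition over a set limit, the all-compound mean plus 3 SD, in both replicate runs; inconclusive = over that limit in just one replicate run; inactive = at or under that limit in both runs.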
Answer each item with its documented inhibition.

Worked examples follow.
| Compound | Reported Measurement |
| --- | --- |
| COc1cccc(NC(=O)c2nc3nc(C)cc(C(F)F)n3n2)c1 | 0.62% (inactive) |
| COc1ccccc1-c1nnc(SCC(=O)NC2CCCCC2)o1 | -0.42% (inactive) |
| CCOc1ccccc1C1C(C(=O)Nc2ccc(OC)cc2)=C(C)Nc2nc(CCCO)nn21 (stereo unspecified) | 0.865% (inactive) |
| O=C(NCc1ccco1)N1c2ccccc2Sc2ccccc21 | 0.805% (inactive) |
| COc1ccc(N(CC(=O)Nc2ccc3c(c2)OCCO3)S(=O)(=O)c2cccnc2)cc1 | 1.63% (inactive) |
| O=C(NCc1cccs1)C(Cc1ccccc1)NS(=O)(=O)c1cccs1 (stereo unspecified) | 1.43% (inactive) |
| CCOc1ccc(Cn2nnc(C(=O)Nc3ccc(OC)cc3OC)c2N)cc1 | 3.14% (inactive) |
| Cn1cc(Cl)c(C(=O)N(Cc2ccccc2)c2ccccn2)n1 | 1.62% (inactive) |

Give measured inhibition for every item shown.
1. Cc1cc(=S)n(-c2ccccc2)n1C
2. CC(=O)Nc1ccc(NC(=O)CSc2nccn2Cc2ccccc2)cc1

(A)
1.21% (inactive)
-0.265% (inactive)

(Q) I am curious: what inhibition value has been reported for COc1cc2[nH]c(=O)n(CCCCCC(=O)N3CCN(c4ccccn4)CC3)c(=O)c2cc1OC ?
(A) 1.7% (inactive)

###

- Test: growth suppression of yeast trafficking mutant, preliminary HTS, modulators of trafficking downstream of Golgi apparatus project, 1536-format plate, OD 615 nm (AID 637)
- Study Conditions: yeast transport mutant growth, absorbance 615 nm, 18 h; stronger effect = higher value
Answer each item with its documented inhibition.
Give bare numbers, in %.

Give measured inhibition for every item shown.
1. O=C(c1cnccn1)N(c1ccccc1)C1(C(=O)NC2CCCC2)CCCCC1
2. CC(C)(C)NC(=O)CC(CC(=O)O)c1ccccc1 (stereo unspecified)
3. C=C(C)Cn1c(-c2ccccc2)nc2ccccc21
4. COc1cc2c(cc1OC)-c1nnc(C)n1C1(CCCC1)C2
5. Cc1cc(C)nc(/N=C2\NC(=O)CC(C(=O)O)N2c2ccc(Cl)cc2)n1 (stereo unspecified)
6. COc1ccc(-c2noc(COc3ccc(Cl)c(C)c3)n2)cc1
7. C=C(Cl)COc1ccc2c(C)cc(=O)oc2c1

(A)
1. -1.75
2. 7.67
3. -1.45
4. -1.17
5. 5.17
6. -7.38
7. -5.56

Give measured inhibition for every item shown.
1. O=C(Nc1ccc(N2C(=O)C3C4C=CC(C4)C3C2=O)cc1)Nc1nncs1 (stereo unspecified)
2. CC(C)n1c(CN2CCN(C)CC2)nc2c1c(=O)n(C)c(=O)n2C
3. Cc1onc(-c2ccccc2)c1C(=O)NCc1cccnc1
4. COc1ccc(NC(=O)Nc2ccc(N3CCCC3=O)cc2)cc1OC

(A)
1: 0.83; 2: 1.8; 3: 3.09; 4: -3.64

###

- Test: viability of PTEN-null HCT116 cells – cell-based, HCT116 clonal line, CellTiter-Glo, pilot screen (AID 824);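 also: 0% = 20 µM Hyamine control and 100% = vehicle cell control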
- Study Conditions: HCT116 PTEN-deleted viability, 60 h, at 10 µM, stronger effect = lower value
Records with an inconclusive call do not appear.
Value Type: viability (%)
Answers are plain numbers, in %.

Worked examples follow.
| Compound | Value Unit | viability |
| --- | --- | --- |
| COc1ccc(-c2nc3c(c(SCC(=O)N4CCOCC4)n2)COC(C)(C)C3)cc1 | % | 103 |
| COC(=O)C(C#N)C(=C1C(=O)CC(C)(C)CC1=O)c1ccc(O)cc1 (stereo unspecified) | % | 101 |
| Cc1cc(=O)oc2cc(OCC(O)CN3CCN(c4ccc(F)cc4)CC3)ccc12 (stereo unspecified) | % | 80.8 |

Give measured viability for every item shown.
1. c1ccc(C2(Cn3ccc4ccccc43)OCCO2)cc1
2. Cc1cc(C)c(NC(=O)c2ccc(S(=O)(=O)N3CCOCC3)cc2)c(C)c1
3. Nc1nc(N2CCCCC2)nc(N(c2ccccc2)c2ccccc2)n1

(A)
[81.8, 98.1, 87.1]

Values were extracted from PubChem BioAssay.
